assay: folding stability dG unfold from chymotrypsin proteolysis; higher = more stable
Quick list: folding stability dG unfold per entry.
The reply should contain only the number, in kcal/mol.

Worked set:
seqText	folding stability dG unfold [kcal/mol]
SAHITISIEVPLPNLKGQTPEEAREVAKDKAREIAKMFNPEFGIKVKEVEVEPHPDEGWLKVDITFEPKSAG [r14_310_TrROS]	0.596
SAGGSASTYEPEVYTFTGKNKKIKVIVVKPKDNPTAKIIVYDENGNVLATIEFPAENVEKALKELASAGGSA [r15_940_TrMRF]	2.12

# input sequence: SLSEEELKKKLEELKKKLKPPKPKVKKVKVKIKNKETNEEIEEEVEIVETPDTVYIYNKKTGKLFKFKIKSA [r9_548_TrROS_Hall] ; wanted: its folding stability dG unfold
1.95

Try this sequence too: SAGGSAGGSAGIDPPDIKLRVESELGPGPVRRLLVYLEGPGELVLVDVPADGSVSVSIFPSAGGSAGGSAGG [r11_55_TrMRF]
2.9
